- TARGET OF ASSAY: T1, cynomolgus PD-1 (#PD1-C52H5, AcroBiosystems) (cynomolgus monkey, UniProt B0LAJ3 25-170)
- T1 construct: bought; also called cynomolgus monkey PD-1; not shown: the vendor's tag on the recombinant protein (AcroBiosystems #PD1-C52H5)
- T1 sequence (B0LAJ3 entry or part of it limits assumed, form in doubt): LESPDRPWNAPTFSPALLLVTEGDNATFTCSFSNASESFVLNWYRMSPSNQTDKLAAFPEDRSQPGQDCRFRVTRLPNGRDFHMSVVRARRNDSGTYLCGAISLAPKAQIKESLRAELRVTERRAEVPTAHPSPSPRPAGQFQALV
- ASSAY TEXT: SPR, PD-1 on captured IgG1
ATTRIBUTE MEASURED: koff (s⁻¹)

1. JZW468 (antibody, human IgG1, V domains shown, human IgG1) VH: EVQLLESGGGLVQPGGSLRLSCAASGFTFSINAMTWVRQAPGKGLEWVSTISGSGFSTYYADSLKGRFTISRDNSKNTLYLQMNSLRAEDTAVYYCAKEVYGDYWGQGTLVTVSS VL: RSVLTQPPSASGTPGQRVSISCSGASSNIGSQSVFWYQQLPGTAPKLLIYSNNQRPSGVPDRFSGSKSGTSASLAISGLRSEDEADYYCAAWDDQLSIWVFGGGTKLTVL :: 0.00029
2. KYC847 (antibody, human IgG1, V domains shown, human IgG1) VH: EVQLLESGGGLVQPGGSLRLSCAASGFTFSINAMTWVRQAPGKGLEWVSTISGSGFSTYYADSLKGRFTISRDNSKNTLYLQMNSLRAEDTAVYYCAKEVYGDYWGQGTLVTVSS VL: RSVLTQPPSASGTPGQRVSISCSGASSNIGSQSVFWYQQLPGTAPKLLIYSNNQRPSGVPDRFSGSKSGTSASLAISGLRSEDEADYYCAAWDDSLTIWVFGGGTKLTVL :: 0.000139
3. NWL270 (antibody, human IgG1, V domains shown, human IgG1) VH: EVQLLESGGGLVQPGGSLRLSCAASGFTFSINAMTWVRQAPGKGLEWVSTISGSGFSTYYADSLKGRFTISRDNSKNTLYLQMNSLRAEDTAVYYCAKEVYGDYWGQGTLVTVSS VL: RSVLTQPPSASGTPGQRVSISCSGASSNIGSQSVFWYQQLPGTAPKLLIYSNNQRPSGVPDRFSGSKSGTSASLAISGLRSEDEADYYCAAWDDSLSNWVFGGGTKLTVL :: 0.00015
4. KWH245 (antibody, human IgG1, V domains shown, human IgG1) VH: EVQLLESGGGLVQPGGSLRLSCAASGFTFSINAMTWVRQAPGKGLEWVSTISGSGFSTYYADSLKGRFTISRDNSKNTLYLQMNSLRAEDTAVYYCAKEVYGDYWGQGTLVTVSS VL: RSVLTQPPSASGTPGQRVSISCSGASSNIGSQSVFTYQQLPGTAPKLLIYSNNQRPSGVPDRFSGSKSGTSASLAISGLRSEDEADYYCAAWDDSLSIWVFGGGTKLTVL :: 0.000644
5. KOW427 (antibody, human IgG1, V domains shown, human IgG1) VH: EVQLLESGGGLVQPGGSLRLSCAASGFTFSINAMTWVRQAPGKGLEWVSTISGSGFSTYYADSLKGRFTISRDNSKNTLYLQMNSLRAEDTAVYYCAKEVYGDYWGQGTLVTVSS VL: RSVLTQPPSASGTPGQRVSISCSGASSNIGSQSVFWYQQLPGTAPKLGIYSNNQRPSGVPDRFSGSKSGTSASLAISGLRSEDEADYYCAAWDDSLSIWVFGGGTKLTVL :: 0.000296
